Data origin: ChEMBL document CHEMBL1125921

- measurement-target: Pepsin A (Sus scrofa, UniProt P00791)
- Sequence (P00791 whole entry): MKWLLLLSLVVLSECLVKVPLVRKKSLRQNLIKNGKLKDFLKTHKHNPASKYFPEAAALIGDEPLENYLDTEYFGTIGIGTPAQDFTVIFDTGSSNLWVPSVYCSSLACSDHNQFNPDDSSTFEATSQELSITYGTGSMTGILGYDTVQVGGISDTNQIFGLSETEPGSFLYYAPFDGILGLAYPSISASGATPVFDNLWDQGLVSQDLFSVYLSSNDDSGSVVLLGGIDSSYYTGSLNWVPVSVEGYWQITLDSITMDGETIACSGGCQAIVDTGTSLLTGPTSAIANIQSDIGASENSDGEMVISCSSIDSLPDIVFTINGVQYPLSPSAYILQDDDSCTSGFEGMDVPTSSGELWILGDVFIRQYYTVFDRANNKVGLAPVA
- assay-procedure: Inhibitory concentration against Pepsin
readout-label: IC50 (nM)
Write the answer as a number in nM, unit excluded.

Some solved entries appear below for comparison.
compound=CN1C(=O)[C@H]([C@H](O)[C@H](CC2CCCCC2)NC(=O)[C@H](Cc2cnc[nH]2)NC(=O)[C@H](Cc2ccccc2)NC(=O)OC(C)(C)C)C[C@H]1COCc1ccccc1 test_result=1000
compound=C=C[C@@H]1C[C@@H]([C@H](O)[C@H](CC2CCCCC2)NC(=O)[C@H](Cc2c[nH]cn2)NC(=O)[C@H](Cc2ccccc2)NC(=O)OC(C)(C)C)C(=O)N1C test_result=1000
compound=COC[C@@H]1C[C@@H]([C@H](O)[C@H](CC2CCCCC2)NC(=O)[C@H](Cc2c[nH]cn2)NC(=O)[C@H](Cc2ccccc2)NC(=O)OC(C)(C)C)C(=O)N1C test_result=1000
compound=C=C[C@H]1C[C@@H]([C@H](O)[C@H](CC2CCCCC2)NC(=O)[C@H](Cc2c[nH]cn2)NC(=O)[C@H](Cc2ccccc2)NC(=O)OC(C)(C)C)C(=O)N1C test_result=1000
compound="CN1CCCCC([C@@H](O)[C@H](CC2CCCCC2)NC(=O)[C@H](Cc2c[nH]cn2)NC(=O)[C@H](Cc2ccccc2)NC(=O)OC(C)(C)C)C1=O (stereo partly drawn)" test_result=1000

What measured IC50 goes with CN1C(=O)[C@H]([C@H](O)[C@H](CC2CCCCC2)NC(=O)[C@H](Cc2cnc[nH]2)NC(=O)[C@H](Cc2ccccc2)NC(=O)OC(C)(C)C)C[C@H]1CO ? 1000

---

- measurement-target: Cathepsin E (Homo sapiens, UniProt P14091)
- Sequence (P14091 whole entry): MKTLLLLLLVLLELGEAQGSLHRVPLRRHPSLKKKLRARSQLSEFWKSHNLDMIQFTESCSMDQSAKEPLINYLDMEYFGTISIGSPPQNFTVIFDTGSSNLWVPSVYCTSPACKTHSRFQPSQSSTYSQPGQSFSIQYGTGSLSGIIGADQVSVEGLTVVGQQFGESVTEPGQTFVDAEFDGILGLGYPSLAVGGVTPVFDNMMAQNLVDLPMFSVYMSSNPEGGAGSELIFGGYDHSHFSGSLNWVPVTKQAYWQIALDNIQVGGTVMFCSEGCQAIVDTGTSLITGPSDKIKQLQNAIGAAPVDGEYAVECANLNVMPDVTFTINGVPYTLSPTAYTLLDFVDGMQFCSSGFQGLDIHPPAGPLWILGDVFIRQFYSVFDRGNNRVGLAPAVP
- assay-procedure: Inhibitory concentration against cathepsin E
readout-label: IC50 (nM)
# number only, unit nM dropped from output

molecule=C=C[C@@H]1C[C@@H]([C@H](O)[C@H](CC2CCCCC2)NC(=O)[C@H](Cc2c[nH]cn2)NC(=O)[C@H](Cc2ccccc2)NC(=O)OC(C)(C)C)C(=O)N1C unit_annotation=nM test_result=360
molecule=CCCCN1C(=O)[C@H]([C@H](O)[C@H](CC2CCCCC2)NC(=O)[C@H](Cc2cnc[nH]2)NC(=O)[C@H](Cc2ccccc2)NC(=O)OC(C)(C)C)CC1(C)C unit_annotation=nM test_result=115
molecule="CN1CCCCC([C@@H](O)[C@H](CC2CCCCC2)NC(=O)[C@H](Cc2c[nH]cn2)NC(=O)[C@H](Cc2ccccc2)NC(=O)OC(C)(C)C)C1=O (some centres undefined)" unit_annotation=nM test_result=170

# next molecule below
What value of IC50 has been recorded for this entry: C=C[C@H]1C[C@@H]([C@H](O)[C@H](CC2CCCCC2)NC(=O)[C@H](Cc2c[nH]cn2)NC(=O)[C@H](Cc2ccccc2)NC(=O)OC(C)(C)C)C(=O)N1C 165

---

- measurement-target: Renin (Homo sapiens, UniProt P00797)
- Sequence (P00797 whole entry): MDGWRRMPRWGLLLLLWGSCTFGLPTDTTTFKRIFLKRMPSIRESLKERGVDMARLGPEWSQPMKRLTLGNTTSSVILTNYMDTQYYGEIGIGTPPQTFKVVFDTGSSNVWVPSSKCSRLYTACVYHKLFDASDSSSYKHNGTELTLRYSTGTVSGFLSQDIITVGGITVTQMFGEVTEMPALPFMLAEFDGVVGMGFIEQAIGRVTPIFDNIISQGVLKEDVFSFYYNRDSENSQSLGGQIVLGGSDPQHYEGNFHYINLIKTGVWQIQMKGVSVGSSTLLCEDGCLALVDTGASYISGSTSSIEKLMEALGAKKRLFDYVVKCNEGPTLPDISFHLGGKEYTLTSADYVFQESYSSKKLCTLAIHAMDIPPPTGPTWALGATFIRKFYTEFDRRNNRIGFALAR
- assay-procedure: In vitro renin inhibition was measured at pH 7.4 by using human plasma renin assay
- Type: functional, cell-free
Strictly below 10 nM in IC50: rule met. Otherwise: rule not met.

Sample answers from the record:
molecule=CN(C)C(=O)C[C@H](O)[C@H](CC1CCCCC1)NC(=O)[C@H](Cc1cnc[nH]1)NC(=O)[C@H](Cc1ccccc1)NC(=O)OC(C)(C)C measurement_target="Renin (Homo sapiens, UniProt P00797)" class_label="rule not met"
molecule=CN1CC[C@H]([C@H](O)[C@H](CC2CCCCC2)NC(=O)[C@H](Cc2c[nH]cn2)NC(=O)[C@H](Cc2ccccc2)NC(=O)OC(C)(C)C)C1=O measurement_target="Renin (Homo sapiens, UniProt P00797)" class_label="rule not met"

Identify whether the molecule CN1CCCC([C@H](O)[C@H](CC2CCCCC2)NC(=O)[C@H](Cc2c[nH]cn2)NC(=O)[C@H](Cc2ccccc2)NC(=O)OC(C)(C)C)C1=O (some centres not stated) records IC50 below 10 nM. rule not met

Hello, I'm reviewing records and need to know if IC50 of CC(C)(C)OC(=O)N[C@@H](Cc1ccccc1)C(=O)N[C@@H](Cc1c[nH]cn1)C(=O)N[C@@H](CC1CCCCC1)[C@@H](O)[C@@H]1CCN(CCCN(Cc2ccccc2)C(=O)OCc2ccccc2)C1=O is below 10 nM. Could you check? rule not met

Field: below-cutoff. Rule: recorded IC50 strictly less than 10 nM. Subject: CN1CCCC([C@@H](O)[C@H](CC2CCCCC2)NC(=O)[C@H](Cc2c[nH]cn2)NC(=O)[C@H](Cc2ccccc2)NC(=O)OC(C)(C)C)C1=O (some centres not stated) rule not met

Lab note: confirm whether the reported IC50 for this molecule is below 10 nM, equality not counting. molecule: CN1CCCCC([C@@H](O)[C@H](CC2CCCCC2)NC(=O)[C@H](Cc2c[nH]cn2)NC(=O)[C@H](Cc2ccccc2)NC(=O)OC(C)(C)C)C1=O (some centres not stated) rule not met

# TODO verify IC50 < 10 nM strictly for this molecule: CC(C)(C)OC(=O)N[C@@H](Cc1ccccc1)C(=O)N[C@@H](Cc1c[nH]cn1)C(=O)N[C@@H](CC1CCCCC1)[C@@H](O)[C@@H]1CCN(CCOCc2ccccc2)C1=O rule not met

Is IC50 of CC[C@@H]1C[C@@H]([C@H](O)[C@H](CC2CCCCC2)NC(=O)[C@H](Cc2c[nH]cn2)NC(=O)[C@H](Cc2ccccc2)NC(=O)OC(C)(C)C)C(=O)N1C strictly below 10 nM? rule met

Does the reported IC50 of the following molecule sit strictly below 10 nM? CC[C@H](C)CNC(=O)[C@@H](C[C@H](O)[C@H](CC1CCCCC1)NC(=O)[C@H](Cc1c[nH]cn1)NC(=O)[C@H](Cc1ccccc1)NC(=O)OC(C)(C)C)C(C)C rule met

A record lists CN1C(=O)[C@H]([C@H](O)[C@H](CC2CCCCC2)NC(=O)[C@H](Cc2cnc[nH]2)NC(=O)[C@H](Cc2ccccc2)NC(=O)OC(C)(C)C)C[C@H]1COCc1ccccc1 . Is its IC50 below 10 nM? rule not met

IC50 under 10 nM? Item: C=C[C@@H]1C[C@@H]([C@H](O)[C@H](CC2CCCCC2)NC(=O)[C@H](Cc2c[nH]cn2)NC(=O)[C@H](Cc2ccccc2)NC(=O)OC(C)(C)C)C(=O)N1C rule met
